- test.system: CDK2 (Homo sapiens)
- Construct: endogenous in cells; host or cells: OVCAR3 cells
- experiment.notes: Phospho-RB measurement in OVCAR3 cells (HTRF phospho-RB cellular kit)
- Format: cell-based
- experimental.setup: inhibition of RB phosphorylation at S807/811 (HTRF, TR-FRET ratio 665/620), 24 h compound treatment, 0.3 to 10,000 nM
Provide the reported pIC50 of each item.
Give bare numbers, as −log10 of the molar value.

Solved cases (2 shown):
CS(=O)(=O)[C@H]1CC[C@H](Nc2nccc(-c3sc(C4(C(F)(F)F)CC4)nc3-c3cccc(NS(=O)(=O)N4CCc5ccc(C(F)(F)F)cc54)c3F)n2)CC1 [Example 282]
6.45
CC(C)(C)c1nc(-c2cccc(NS(=O)(=O)N3Cc4cccc(Cc5ccccc5)c4C3)c2F)c(-c2ccnc(NC3CC4(C3)CS(=O)(=O)C4)n2)s1 [Example 232]
6.03

Challenge: For CNS(=O)(=O)Nc1cccc(-c2nc(C(C)(C)C)sc2-c2ccnc(NC3CCN(S(=O)(=O)N4CCNCC4)CC3)n2)c1F [Example 146] , what is its reported pIC50?
Response given: 5.52
